# Experimental System: T1, human IGSF11 (VSIG3) expressed on the surface of cells (human, UniProt Q5DX21 23-431)
# T1 construct: one molecule for all cell lines; the cell line is named under assay; also called IGSF11-expressing cells; HEK-OE
# T1 sequence: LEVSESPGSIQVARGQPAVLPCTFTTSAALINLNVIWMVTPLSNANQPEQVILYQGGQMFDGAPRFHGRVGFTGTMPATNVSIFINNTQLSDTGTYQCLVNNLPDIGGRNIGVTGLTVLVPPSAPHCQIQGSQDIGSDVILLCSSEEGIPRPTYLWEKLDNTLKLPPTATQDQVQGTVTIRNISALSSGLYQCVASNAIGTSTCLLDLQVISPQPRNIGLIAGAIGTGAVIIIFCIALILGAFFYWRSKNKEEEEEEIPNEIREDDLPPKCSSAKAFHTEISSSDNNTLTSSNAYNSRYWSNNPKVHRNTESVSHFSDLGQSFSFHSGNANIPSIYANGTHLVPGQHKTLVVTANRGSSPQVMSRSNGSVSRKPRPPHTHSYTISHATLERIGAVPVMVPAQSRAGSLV
# Test Details: FACS on M579-A2-luc cells treated with scrambled control siRNA (SC)
Each entry below carries its recorded percentage binding.
Assay Endpoint: percentage binding (%)

[[record]]
binder = "A-026 (human IgG1 format) (antibody, V domains shown, human IgG1 format) VH: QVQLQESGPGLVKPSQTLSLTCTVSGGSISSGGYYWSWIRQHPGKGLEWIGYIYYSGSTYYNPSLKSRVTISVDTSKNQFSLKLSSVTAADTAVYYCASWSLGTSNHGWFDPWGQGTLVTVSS VL: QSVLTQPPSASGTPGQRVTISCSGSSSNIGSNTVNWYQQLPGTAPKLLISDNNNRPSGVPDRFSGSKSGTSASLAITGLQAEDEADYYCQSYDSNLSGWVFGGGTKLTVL"
observed_measurement = 11.6

[[record]]
binder = "B-002 (chain-swapped, human IgG1 format) (antibody, V domains shown, VH of A-006 with VL of A-012; IgG1 format; also called B2; Chains-B-002) VH: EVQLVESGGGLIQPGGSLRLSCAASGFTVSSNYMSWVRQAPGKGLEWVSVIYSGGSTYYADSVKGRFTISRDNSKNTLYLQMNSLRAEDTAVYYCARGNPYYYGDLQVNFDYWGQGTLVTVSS VL: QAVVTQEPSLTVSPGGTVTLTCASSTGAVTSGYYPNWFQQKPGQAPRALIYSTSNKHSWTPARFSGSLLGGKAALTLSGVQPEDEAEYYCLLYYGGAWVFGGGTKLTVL"
observed_measurement = 70.7

[[record]]
binder = "A-006 (human IgG1 format) (antibody, V domains shown, human IgG1 format) VH: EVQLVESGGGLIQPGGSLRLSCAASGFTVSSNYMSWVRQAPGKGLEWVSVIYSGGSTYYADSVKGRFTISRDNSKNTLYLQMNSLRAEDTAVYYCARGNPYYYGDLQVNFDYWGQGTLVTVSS VL: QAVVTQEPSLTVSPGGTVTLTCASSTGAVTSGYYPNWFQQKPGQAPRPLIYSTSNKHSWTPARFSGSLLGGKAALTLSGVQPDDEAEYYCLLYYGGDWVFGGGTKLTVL"
observed_measurement = 75.3

